The reported measurements were obtained from PubChem BioAssay (NCI).

Each entry below carries its reported TGI.
System: U251 CNS
test name: NCI tumour cell line growth inhibition, 48 h

compound: COc1ccc(C(=O)/C=C/c2sc(Cl)nc2Cl)cc1
unit text: µM
relation qualifier: =
TGI: 3.83

compound: COC(=O)[C@H](CNC(=O)/C=C/c1ccc(OC(C)=O)c(OC(C)=O)c1)NC(=O)/C=C/c1ccc(OC(C)=O)c(OC(C)=O)c1
unit text: µM
relation qualifier: >
TGI: 100

compound: N#C/C(=C\c1ccc(O)c(O)c1)c1c(C#N)c(N)nn1-c1ccccc1
unit text: µM
relation qualifier: =
TGI: 20.6

compound: Cc1cccc(C(C)(C)C)c1NC(=O)C(C#N)C1=C(Cl)C(=O)c2ccccc2C1=O (stereo not given)
unit text: µM
relation qualifier: =
TGI: 31.3

compound: CC1=C(C(=O)NNC(=O)Cc2ccccc2)CC(C(=O)NNC(=O)Cc2ccccc2)=C(C)N1
unit text: µM
relation qualifier: >
TGI: 100
